Test system: L02
assayExplanation: Cytotoxicity against human L02 cells assessed as reduction in cell viability incubated for 72 hrs by MTT assay
Assay type: cell-based
conditionsUsed: L02, 72 h
pIC50: −log10 of the molar value.
As shown below, each of these compounds has a reported pIC50 value.
endpoint: pIC50

sampleSmiles: COc1ccc(CNC(=O)c2ccccc2N2CCCCC2)cc1O
assayValue: 7.01
--
sampleSmiles: CSc1ccc(COC(=O)c2cc([N+](=O)[O-])ccc2N2CCOCC2)cc1
assayValue: 7.36
--
sampleSmiles: COc1ccc(CNC(=O)c2cc(C(F)(F)F)ccc2N2CCOCC2)cc1O
assayValue: 6.99
--
sampleSmiles: COc1ccc(CNC(=O)c2cc([N+](=O)[O-])ccc2N2CCSCC2)cc1O
assayValue: 6.95
--
sampleSmiles: COc1ccc(N2CCOCC2)c(C(=O)NCc2ccc(OC)c(O)c2)c1
assayValue: 7.28
--
sampleSmiles: COc1ccc(CNC(=O)c2cc([N+](=O)[O-])ccc2N2CCOCC2)cc1O
assayValue: 6.94
--
sampleSmiles: COc1ccc(CNC(=O)c2ccccc2N2CCOCC2)cc1O
assayValue: 6.98
